# ASSAY: High Content Imaging Cell-Based qHTS for Inhibitors of the mTORC1 Signaling Pathway in MEF Cells (AID 2667)
# CONDITION: series mostly up to 38.3 µM
Records with an inconclusive call do not appear. Activity calls are given as the source filed them. The call rests on the fitted dose curve; in most records, active means well fitted inhibition curve with a large enough effect; inconclusive means small, poorly fitted or top-dose-only effect, or effect the other way; inactive means no such curve, though single readings can be large or run the other way.
Pick one and only one: 1 = active, -1 = inactive

COMPOUND | DISCRETE LABEL
CC1=C(/C=C/C(C)=C/C=C/C(C)=C/C(=O)O)C(C)(C)CCC1 | -1
CC(=O)OCC(=O)[C@@]1(O)CC[C@H]2[C@@H]3CCC4=CC(=O)CC[C@]4(C)[C@H]3C(=O)C[C@@]21C | -1
CCN(CC)CCCC(C)Nc1c2ccc(Cl)cc2nc2ccc(OC)cc12 (centres undefined) | 1
C#CCN(C)Cc1ccccc1 | -1
CSc1ccc2c(c1)N(CCC1CCCCN1C)c1ccccc1S2 (centres undefined) | -1

Ask: Called result for NC(=O)c1ncn([C@@H]2O[C@H](CO)[C@@H](O)[C@H]2O)n1
Reply: -1

Ask: Called result for COC(=O)C1=C(C)NC(C)=C(C(=O)OC)C1c1ccccc1[N+](=O)[O-]
Reply: -1

Ask: Called result for C=Cc1c(C)c2cc3[nH]c(cc4nc(cc5nc(cc1[nH]2)C(C)=C5CCC(=O)O)C(CCC(=O)O)=C4C)c(C)c3C=C
Reply: -1

Ask: Called result for CCCCCCCCCCCCCCCC(=O)NCCO
Reply: -1

----------
# ASSAY: qHTS drug screen for cell cycle checkpoint inhibitors in PARPi-resistant BRCA-mutant ovarian cancer cell lines. (AID 1963452)
# CONDITION: PEO1/OlaR viability, CellTiter-Glo luminescence, 96 h; hits give low values
# fulfilled = Z-AUC below -0.5 (exclusive); not fulfilled = Z-AUC at/above -0.5

Known results for compounds:
COMPOUND | DISCRETE LABEL
Cc1c(O)cccc1C(=O)N[C@@H](CSc1ccccc1)[C@H](O)CN1C[C@H]2CCCC[C@H]2C[C@H]1C(=O)NC(C)(C)C | fulfilled
C[C@H]1O[C@@H](n2cc(F)c(=O)[nH]c2=O)[C@H](O)[C@@H]1O | not fulfilled

Ask: For CC(=O)OCC(=O)[C@@]1(O)CC[C@H]2[C@@H]3CCC4=CC(=O)CC[C@]4(C)[C@H]3C(=O)C[C@@]21C , is the recorded Z-AUC below the cut-off of -0.5?
Reply: fulfilled

Ask: For CCN(CC)CCNC(=O)c1c(C)[nH]c(/C=C2\C(=O)Nc3ccc(F)cc32)c1C , is the recorded Z-AUC below the cut-off of -0.5?
Reply: fulfilled

Ask: For Cn1c(=O)c2c(ncn2CC2OCCO2)n(C)c1=O , is the recorded Z-AUC below the cut-off of -0.5?
Reply: fulfilled

Ask: For CC[C@H]1CN2CCc3cc(OC)c(OC)cc3[C@@H]2C[C@@H]1C[C@H]1NCCc2cc(OC)c(OC)cc21 , is the recorded Z-AUC below the cut-off of -0.5?
Reply: not fulfilled

Ask: For CN(N=O)C(=O)N[C@@H]1[C@@H](O)[C@H](O)[C@@H](CO)O[C@@H]1O , is the recorded Z-AUC below the cut-off of -0.5?
Reply: not fulfilled

Ask: For NC(=O)c1ncn([C@@H]2O[C@H](CO)[C@@H](O)[C@H]2O)n1 , is the recorded Z-AUC below the cut-off of -0.5?
Reply: not fulfilled

Ask: For CC(C)c1c(C(=O)Nc2ccccc2)c(-c2ccccc2)c(-c2ccc(F)cc2)n1CC[C@@H](O)C[C@@H](O)CC(=O)O , is the recorded Z-AUC below the cut-off of -0.5?
Reply: fulfilled

Ask: For CCN(CC)CCCC(C)Nc1c2ccc(Cl)cc2nc2ccc(OC)cc12 (stereo unspecified) , is the recorded Z-AUC below the cut-off of -0.5?
Reply: not fulfilled

Ask: For OC[C@H]1O[C@@H](O[C@@H]2[C@@H](CO)O[C@](O)(CO)[C@H]2O)[C@H](O)[C@@H](O)[C@H]1O , is the recorded Z-AUC below the cut-off of -0.5?
Reply: not fulfilled

----------
# ASSAY: High Content Imaging Cell-Based qHTS for Inhibitors of the mTORC1 Signaling Pathway in MEF (Tsc2-/-, p53-/-) Cells (AID 2666);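 further: percent of cells scored positive for phospho-rpS6 Ser235/236 immunostaining by imaging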
# CONDITION: series mostly up to 38.3 µM
# Text: NIH Molecular Libraries Probe Production Centers Network [MLPCN] NIH Chemical Genomics Center [NCGC] Assay Submitter (PI): Blenis, John; Hoffman, Greg; Harvard University […] For quantitative high throughput analysis of mTORC1 signaling, we developed a cell-based assay for immuno-fluorescence based detection of rpS6 phosphorylation on the Acumen Explorer that will be used a platform for the primary small molecule screen. […]
Results filed as inconclusive are left out. The source made the active and inactive calls. Calls come from the whole dose curve; as a rule, active = well fitted inhibition curve with a large enough effect; inconclusive = small, poorly fitted or top-dose-only effect; inactive = flat fitted curve, though single readings scatter.
Pick one and only one: active, inactive

Known results for molecules:
MOLECULE | DISCRETE LABEL
N=c1c[n+](N2CCOCC2)[n-]o1 | inactive
CNCCCC1c2ccccc2C=Cc2ccccc21 | inactive

Ask: Called result for CN(C)CCOC(C)(c1ccccc1)c1ccccn1 (centres undefined)
Reply: inactive

Ask: Called result for OCCN1CCN(CCCN2c3ccccc3Sc3ccc(Cl)cc32)CC1
Reply: inactive

Ask: Called result for CCN(CC)CCCC(C)Nc1c2ccc(Cl)cc2nc2ccc(OC)cc12 (centres undefined)
Reply: active

Ask: Called result for CCN(CC)C(C)CN1c2ccccc2Sc2ccccc21 (centres undefined)
Reply: inactive

Ask: Called result for C[C@]12CC[C@@H]3c4ccc(O)cc4CC[C@H]3[C@@H]1CCC2=O
Reply: inactive

Ask: Called result for CC(C)(C)c1onc(OCP(=O)(O)O)c1CC(N)C(=O)O (centres undefined)
Reply: inactive

Ask: Called result for NC(=O)c1ncn([C@@H]2O[C@H](CO)[C@@H](O)[C@H]2O)n1
Reply: inactive

Ask: Called result for CC(C)NC[C@H](O)c1ccc(O)c(O)c1
Reply: inactive

Ask: Called result for CNCC(O)c1ccc(O)c(O)c1 (centres undefined)
Reply: inactive

Ask: Called result for CC(C)(C(=O)O)c1ccc(C(O)CCCN2CCC(C(O)(c3ccccc3)c3ccccc3)CC2)cc1 (centres undefined)
Reply: inactive

Ask: Called result for CCCn1cnc2c1c(=O)n(CCCCC(C)=O)c(=O)n2C
Reply: inactive

Ask: Called result for OCc1cc(C(O)CNCCCCCCOCCCCc2ccccc2)ccc1O (centres undefined)
Reply: inactive

Ask: Called result for CN(C)CCCN1c2ccccc2Sc2ccc(Cl)cc21
Reply: inactive

----------
# ASSAY: qHTS of pediatric cancer cell lines to identify multiple opportunities for drug repurposing: Primary screen for SJ-GBM2 cells (AID 1347091)
# CONDITION: SJ-GBM2 viability, CellTiter-Glo luminescence, 48 h; series mostly up to 46 µM
Records with an inconclusive call do not appear. Active and inactive are the calls of the source. Calls come from the whole dose curve; as a rule, active = well fitted cell-killing curve with a large enough effect; inconclusive = small, poorly fitted or top-dose-only effect; inactive = no such curve, though single readings can be large or run the other way.
Pick one and only one: active, inactive

COMPOUND | DISCRETE LABEL
CC[C@H]1CN2CCc3cc(OC)c(OC)cc3[C@@H]2C[C@@H]1C[C@H]1NCCc2cc(OC)c(OC)cc21 | active
CCCCN(CCCC)CCCOC(=O)c1ccc(N)cc1 | inactive
OCC(O)CN1CCN(c2ccccc2)CC1 (stereo not given) | inactive
C[C@]12C[C@H](O)[C@H]3[C@@H](CCC4=CC(=O)CC[C@@]43C)[C@@H]1CC[C@@H]2C(=O)CO | inactive

Ask: Called result for O=C(CCCN1CCN(c2ccccn2)CC1)c1ccc(F)cc1
Reply: inactive

----------
# Tested on: 7G8
# ASSAY: qHTS profiling for inhibitors of Plasmodium falciparum proliferation (AID 504749);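 further: 0% = DMSO vehicle and full inhibition = artemisinin control; nearly all actives have a fitted effect of over 60% in size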
# CONDITION: P. falciparum in erythrocytes, SYBR Green DNA, 72 h; series mostly up to 28.7 µM
Results filed as inconclusive are left out. Active and inactive are the calls of the source. Calls follow the shape of the dose curve; as a rule, active = well fitted inhibition curve with a large enough effect; inconclusive = small, poorly fitted or top-dose-only effect; inactive = flat fitted curve, though single readings scatter.
Pick one and only one: Y = active, N = inactive

Known results for compounds:
COMPOUND | DISCRETE LABEL
NC(=O)NC(=O)Cc1ccccc1 | N
O=C(O)c1ccccc1O | N
CCCOC(=O)c1ccccc1 | N

Ask: Called result for CCC(=O)Nc1ccc(O)cc1
Reply: N

Ask: Called result for CC(O)COc1ccccc1 (centres undefined)
Reply: N

Ask: Called result for O=C(O)COc1nn(Cc2ccccc2)c2ccccc12
Reply: N

Ask: Called result for O=c1cc[nH]c(=S)[nH]1
Reply: N

Ask: Called result for C[C@@H]1CN(c2c(F)c(F)c3c(=O)c(C(=O)O)cn(C4CC4)c3c2F)C[C@H](C)N1
Reply: N

Ask: Called result for Cc1cc2c(cc1S(N)(=O)=O)S(=O)(=O)CCC2
Reply: N

----------
# Tested on: SKOV3
# ASSAY: Primary qHTS to identify gynecologic anti-cancer compounds using libraries of approved drugs and bioactive compounds (AID 1345084); further: nearly all actives have a fitted effect of over 55% in size
# CONDITION: Gynecologic cancer cell panel viability, ATPlite luminescence, 48 h; series mostly up to 57.5 µM
Inconclusive results are not listed. Active and inactive are the calls of the source. Calls follow the shape of the dose curve; as a rule, active = well fitted cell-killing curve with a large enough effect; inconclusive = small, poorly fitted or top-dose-only effect, or effect the other way; inactive = flat fitted curve, though single readings scatter.
PROPERTY NAME: activity change, negative = cytotoxicity

Worked examples follow.
COMPOUND | activity change, negative = cytotoxicity
CCCOC(=O)c1ccccc1 | inactive
Nc1ccc(S(=O)(=O)Nc2ccccc2)cc1 | inactive
CCOC(=O)[C@H](CCc1ccccc1)N[C@@H](C)C(=O)N1C(=O)N(C)C[C@H]1C(=O)O | inactive
NC(CSCC(=O)O)C(=O)O (stereo not drawn) | inactive
CC(COc1ccccc1)NC(C)C(O)c1ccc(O)cc1 (stereo not drawn) | inactive

Ask: Identify the reported activity change, negative = cytotoxicity for the following entry. O=C(O)[C@H](O)c1ccccc1
Reply: inactive

Ask: Identify the reported activity change, negative = cytotoxicity for the following entry. CCCCOC(=O)c1ccc(O)cc1
Reply: inactive

Ask: Identify the reported activity change, negative = cytotoxicity for the following entry. CC1CC(OC(=O)C(O)c2ccccc2)CC(C)(C)N1C (stereo not drawn)
Reply: inactive

Ask: Identify the reported activity change, negative = cytotoxicity for the following entry. CC1(C)[C@@H]2CC[C@@]1(C)C(=O)C2
Reply: inactive

Ask: Identify the reported activity change, negative = cytotoxicity for the following entry. CC(=O)CCC(=O)O
Reply: inactive

Ask: Identify the reported activity change, negative = cytotoxicity for the following entry. CCN(CC)CCNC(=O)c1cc(Cl)c(N)cc1OC
Reply: inactive

Ask: Identify the reported activity change, negative = cytotoxicity for the following entry. O=C(O)c1ccccc1-c1ccc(C(F)(F)F)cc1
Reply: inactive

Ask: Identify the reported activity change, negative = cytotoxicity for the following entry. CCCc1c(OCCCCc2nn[nH]n2)ccc(C(C)=O)c1O
Reply: inactive

Source: PubChem BioAssay (NCATS)
